Measured values drawn from patent US20240279281A1 for this set.

Parameter IL23R Reporter Assay IC50: see the listing below.
system name: T1, interleukin-23 receptor (IL-23R), Q5VWK5
T1 chain: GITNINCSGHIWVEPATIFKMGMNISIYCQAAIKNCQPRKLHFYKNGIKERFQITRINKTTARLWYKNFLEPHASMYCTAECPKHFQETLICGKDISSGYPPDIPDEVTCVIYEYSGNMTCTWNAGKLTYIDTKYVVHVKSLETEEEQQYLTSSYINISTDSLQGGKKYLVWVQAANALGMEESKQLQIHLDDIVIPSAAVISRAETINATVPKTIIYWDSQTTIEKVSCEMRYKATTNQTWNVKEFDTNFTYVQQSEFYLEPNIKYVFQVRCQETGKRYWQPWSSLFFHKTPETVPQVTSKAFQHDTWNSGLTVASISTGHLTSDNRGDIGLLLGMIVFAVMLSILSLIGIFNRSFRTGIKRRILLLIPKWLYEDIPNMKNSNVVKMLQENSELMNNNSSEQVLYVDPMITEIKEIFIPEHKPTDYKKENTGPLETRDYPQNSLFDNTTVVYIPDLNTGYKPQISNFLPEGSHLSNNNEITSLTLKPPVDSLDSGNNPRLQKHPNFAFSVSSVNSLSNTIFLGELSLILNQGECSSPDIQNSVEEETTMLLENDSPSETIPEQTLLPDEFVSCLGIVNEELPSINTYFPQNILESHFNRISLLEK
protocol details: cell-based or functional assay
Starred links: 1 amine or outer side, 2 acyl side, 3 side chain; linkers in the order of their positions; H or OH if unused. Positions of bridges follow the written chain, without caps; N, C: chain ends. Non-standard residues stand in square brackets, D forms with d. No end group written: not given here. X1 = 3‑(7-(3-acetamidophenyl)-1H-indol-3-yl)‑2‑aminopropanoic acid, CC(=O)Nc1cccc(-c2cccc3c(CC(N[*:1])C(=O)[*:2])c[nH]c23)c1; X10 = 2‑amino‑3‑(4-(2-guanidinoethoxy)phenyl)propanoic acid, N=C(N)NCCOc1ccc(CC(N[*:1])C(=O)[*:2])cc1; X7 = 2‑amino‑3‑(5-methylpyridin-3-yl)propanoic acid, Cc1cncc(CC(N[*:1])C(=O)[*:2])c1; N‑methyl‑N‑acetyllysine = N-methyl-N-acetyllysine; 2Nal(6-OH) = N[C@@H](Cc1ccc2cc(O)ccc2c1)C(=O)O; Trp(7-Me) = Cc1cccc2c(C[C@H](N)C(=O)O)c[nH]c12; AEF = NCCOc1ccc(C[C@H](N)C(=O)O)cc1; 3Pal = N[C@@H](Cc1cccnc1)C(=O)O; Pen = CC(C)(S)[C@H](N)C(=O)O; lipid = not defined here; Thp = NC1(C(=O)O)CCOCC1; Sar = CNCC(=O)O

Record excerpt, results attached:
Ask | Dear colleague, I am looking for the recorded IL23R Reporter Assay IC50 of the following binder: [Pen]NT[X1]K(Ac)[Pen][X10][2‑amino‑3‑(6-hydroxynaphthalen-2-yl)propanoic acid][Thp]EN[X7][Sar] (ends and bridges not checked) [SEQ ID NO: 16]
Reply | < 0.01 µM

Ask | Follow-up entry: [Pen]NT[Trp(7-Me)]K(Ac)[Pen][2‑amino‑3‑(4-(2-aminoethoxy)phenyl)propanoic acid][2‑amino‑3‑(6-hydroxynaphthalen-2-yl)propanoic acid][Thp]EN[3Pal][Sar] (not fully specified (bridges); ends and bridges not checked) [SEQ ID NO: 379]
Reply | < 0.01 µM

Ask | Quick one: [N‑amino‑O‑(2-(2-(methylamino)ethoxy)ethyl)‑D‑serine][Pen]NT[Trp(7-Me)][N‑methyl‑N‑acetyllysine][Pen][AEF][2Nal(6-OH)][Thp]DN[3Pal][Sar] (disulfide 2-7 (inferred); ends not checked) [SEQ ID NO: 290]
Reply | < 0.01 µM

Ask | Also [Pen]NT[Trp(7-Me)]K(lipid)[Pen][2‑amino‑3‑(4-(2-aminoethoxy)phenyl)propanoic acid][2‑amino‑3‑(6-hydroxynaphthalen-2-yl)propanoic acid][Thp]K(Ac)N[3Pal][Sar] (disulfide 1-6 (inferred); ends not checked; also: K5 lipidated, lipid not given here) [SEQ ID NO: 178] , if possible.
Reply | > 0.1 µM

Ask | Further, for R[Pen]NT[Trp(7-Me)]K(Ac)[Pen][2‑amino‑3‑(4-(2-aminoethoxy)phenyl)propanoic acid][2‑amino‑3‑(6-hydroxynaphthalen-2-yl)propanoic acid][Thp]KN[3Pal][Sar] (not fully specified (bridges); ends and bridges not checked; also: K11: lipidated lysine, lipid not given here) [SEQ ID NO: 86] ?
Reply | < 0.01 µM

Continuing:
Ask | Recorded IL23R Reporter Assay IC50 for R[Pen]NT[Trp(7-Me)]K(Ac)[Pen][AEF][2Nal(6-OH)][Thp]KN[3Pal][Sar] (not fully specified (residue 11, bridges); ends and bridges not checked; also: K11: lipidated lysine) [SEQ ID NO: 424] , please?
Reply | > 0.1 µM
